# tested-target: T1, human recombinant CD117 (c-Kit) from Sino Biological (Catalog No. 11996-H08H) (human, UniProt P10721 26-524)
# T1 construct: also called soluble antigen
# T1 sequence (P10721 26-524 limits assumed): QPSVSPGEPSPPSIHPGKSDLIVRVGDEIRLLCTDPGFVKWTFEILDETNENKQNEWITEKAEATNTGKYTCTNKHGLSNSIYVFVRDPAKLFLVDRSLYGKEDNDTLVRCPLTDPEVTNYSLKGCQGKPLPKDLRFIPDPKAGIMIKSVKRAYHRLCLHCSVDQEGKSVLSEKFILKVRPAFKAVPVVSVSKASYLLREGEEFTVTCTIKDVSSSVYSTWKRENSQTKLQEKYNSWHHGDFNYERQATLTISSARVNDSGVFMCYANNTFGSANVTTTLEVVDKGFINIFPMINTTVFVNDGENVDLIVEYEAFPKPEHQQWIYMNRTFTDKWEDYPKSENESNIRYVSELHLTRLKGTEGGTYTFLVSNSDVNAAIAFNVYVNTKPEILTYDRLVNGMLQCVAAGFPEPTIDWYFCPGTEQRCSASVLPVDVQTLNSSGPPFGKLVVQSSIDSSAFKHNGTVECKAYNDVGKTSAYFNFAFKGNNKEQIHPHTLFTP
# assay: BLI Octet, set-up as in Example 2
# Protocol: In the main experiment kinetic assays were performed by first capturing IgG using anti-human Fc biosensors. The mAb capture biosensors were then submerged in wells containing different concentrations of antigen (association stage) followed by a dissociation step in running buffer. […] Dissociation rate constants (Kd) were calculated using the ForteBio Data Analysis software. […]
Mark true for Kd under 1 nM, false if at or over.

The examples below pair each entry with its known result.
binder="Nadelhorn (antibody, V domains shown, IgG; also called VH1/VL1.8) VH: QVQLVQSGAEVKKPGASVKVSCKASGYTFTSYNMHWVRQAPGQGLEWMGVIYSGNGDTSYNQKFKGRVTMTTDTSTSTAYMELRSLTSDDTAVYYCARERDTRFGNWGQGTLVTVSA VL: EIVLTQSPSSLSASVGDRVTITCRASESVDIYGYSFMHWYQQKPGKAPKLLIYLASNLESGVPSRFSGSGSGTDFTLTISSLQPEDFATYYCQQNNEDPYTFGQGTKLEIKR" category=true
binder="Aletschhorn (antibody, V domains shown, IgG; also called VH1/VL1.14) VH: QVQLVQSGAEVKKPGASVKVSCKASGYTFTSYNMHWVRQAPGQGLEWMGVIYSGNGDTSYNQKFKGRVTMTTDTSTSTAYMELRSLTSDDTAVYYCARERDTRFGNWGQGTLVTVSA VL: EIVLTQSPSSLSASVGDRVTITCRASESVDIYGNSFMHWYQQKPGKAPKLLIYLASNLESGVPSRFSGSGSGTDFTLTISSLQPEDFATYYCQQNNEPPYTFGQGTKLEIKR" category=false

Input: I'd appreciate it if you could check whether Eiger (antibody, V domains shown, IgG; also called VH1/VL1.26) VH: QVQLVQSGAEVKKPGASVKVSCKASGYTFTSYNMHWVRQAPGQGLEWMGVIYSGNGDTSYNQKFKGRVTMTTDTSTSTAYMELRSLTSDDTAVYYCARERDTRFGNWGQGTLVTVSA VL: EIVLTQSPSSLSASVGDRVTITCRASESVDIYGSSFMHWYQQKPGKAPKLLIYLASNLESGVPSRFSGSGSGTDFTLTISSLQPEDFATYYCQQNKEEPYTFGQGTKLEIKR has Kd smaller than 1 nM.
Output: false

Input: Answer whether the binder Piz Bernina (antibody, V domains shown, IgG; also called VH1/VL1.17) VH: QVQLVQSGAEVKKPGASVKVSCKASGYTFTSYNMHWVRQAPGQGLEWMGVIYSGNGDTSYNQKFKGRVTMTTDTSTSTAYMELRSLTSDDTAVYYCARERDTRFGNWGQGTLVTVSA VL: EIVLTQSPSSLSASVGDRVTITCRASESVDIYGESFMHWYQQKPGKAPKLLIYLASNLESGVPSRFSGSGSGTDFTLTISSLQPEDFATYYCQQNNEEPYTFGQGTKLEIKR has Kd strictly less than 1 nM
Output: true

Input: Strictly below 1 nM in Kd? Dirruhorn (antibody, V domains shown, IgG; also called VH1/VL1.18; VH1/VH1.18) VH: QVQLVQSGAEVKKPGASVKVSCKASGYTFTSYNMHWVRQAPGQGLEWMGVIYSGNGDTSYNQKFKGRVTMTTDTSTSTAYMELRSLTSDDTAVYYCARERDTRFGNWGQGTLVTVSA VL: EIVLTQSPSSLSASVGDRVTITCRASESVDIYGYSFMHWYQQKPGKAPKLLIYLASNLESGVPSRFSGSGSGTDFTLTISSLQPEDFATYYCQQNKEEPYTFGQGTKLEIKR
Output: true
